- Test system: OVCAR-3
- Assay info: NCI tumour cell line growth inhibition, 48 h
Calls of active or inactive are those of the source. Cut-off read from the data, not from the text of the source: active = GI50 up to about 1.1 µM and inactive = higher.
Please provide measured GI50 for the entries that follow.

These recorded examples may help you get a feel for the data.
Compound	Result
CC(=O)Nc1ccc(-c2nnc(SCC(=O)Nc3ccccc3)o2)cc1	> 100 µM (inactive)
CCO/C=C1\SC(=S)N(c2ccc(OCC)cc2)C1=O	> 100 µM (inactive)
c1ccc2c(CN3CCN(Cc4c[nH]c5ccccc45)CC3)c[nH]c2c1	13.1 µM (inactive)
CCc1cccc(=O)c([O-])c1.CCc1cccc(=O)c([O-])c1.[Bi+3].[Cl-]	5.92 µM (inactive)
Cc1ccc(NC(=O)/C(CC(=O)c2c[n+]([O-])c3ccccc3[n+]2[O-])=N\NC(=O)C[n+]2ccccc2)cc1	> 100 µM (inactive)

Please look at the items below and tell me GI50 for each one, in order.
1. CCCCN1C=CN2c3nc4cc(C)c(C)cc4n3C(C(=O)OC)=C(C(=O)OC)C12 (stereo unspecified)
2. C=C(Cl)C(Cl)(CBr)CCC(Cl)C(C)C (stereo unspecified)
3. O=CC(=C(I)I)c1ccccc1
4. COc1ccc(NC(=O)CSc2nnc(Cc3ccccc3)o2)cc1
5. CCOC(=O)C(=O)Nc1ccccc1C(C)C
6. CC(=O)OCC1OC(O[C@H]2C=C[C@@H](C(=O)OCc3ccccc3)n3c(=O)n(-c4ccccc4)c(=O)n32)C(OC(C)=O)C(OC(C)=O)C1OC(C)=O (stereo partly specified)

["> 100 µM (inactive)", "1.32 µM (inactive)", "1.98 µM (inactive)", "78.3 µM (inactive)", "> 100 µM (inactive)", "1.79 µM (inactive)"]

Please look at the items below and tell me GI50 for each one, in order.
1. COC(=O)C1=C(c2cc(OC)c(OC)c(OC)c2)OC(c2cc(OC)c(OC)c(OC)c2)C1 (stereo unspecified)
2. NC(=S)N/N=C1\NC(=O)/C(=C/c2ccc3c(c2)OCO3)S1
3. O=C1CC(=O)NC(NNS(=O)(=O)c2ccccc2)=N1

22.1 µM (inactive)
19.2 µM (inactive)
> 100 µM (inactive)

Please look at the items below and tell me GI50 for each one, in order.
1. CN(C)NC(=S)Nc1ccccc1Br
2. O=C1N(CN2CCOCC2)CN(CN2CCOCC2)C(=O)N1Cc1ccccc1
3. CO[C@H]1O[C@@H]2CO[C@@H](c3ccccc3)O[C@H]2[C@@H]2C/C=C\CCC[C@@]12O
4. CCN(CC)CCn1ncc2c3c(=O)c4cccnc4n(CCN(CC)CC)c3ccc21

["> 100 µM (inactive)", "23.9 µM (inactive)", "16.3 µM (inactive)", "8.11 µM (inactive)"]

Please look at the items below and tell me GI50 for each one, in order.
1. COc1cc(/C=N\O)nc(-c2ccccn2)c1
2. COC(=O)N1C=CC2=C(C)C3Nc4ccccc4C3C(C)=C2C1 (stereo unspecified)
3. COc1ccccc1Cn1c2c(c3cc(O)ccc31)C(=O)c1ccccc1C2=O

["0.222 µM (active)", "0.923 µM (active)", "28.9 µM (inactive)"]
